// reported GI50 for each item listed
# System: OVCAR-3
# Experiment: NCI tumour cell line growth inhibition, 48 h
Calls of active or inactive are those of the source. Rule as the data show it: active = GI50 up to about 1.1 µM and inactive = higher.

Completed entries (count: 5):
>  <Compound>
CCCC(CC)c1cc(O)c(O)cc1C(CC)CCC (stereo unspecified)

>  <Study system>
OVCAR-3

>  <Reading>
> 10 µM (inactive)

$$$$
>  <Compound>
Cc1cc(OCc2nnc3n2N=C(c2cc(F)c(Cl)cc2Cl)/C(=C/c2ccc(Cl)cc2)S3)ccc1Cl

>  <Study system>
OVCAR-3

>  <Reading>
30.5 µM (inactive)

$$$$
>  <Compound>
O=c1c2ncn(C3CCCCO3)c2n(-c2ccccc2)c(=S)n1-c1ccccc1 (stereo unspecified)

>  <Study system>
OVCAR-3

>  <Reading>
> 61.9 µM (inactive)

$$$$
>  <Compound>
CCCCN1C(=O)c2c(-c3sccc3N)sc(-c3sccc3N)c2C1=O

>  <Study system>
OVCAR-3

>  <Reading>
16 µM (inactive)

$$$$
>  <Compound>
N#CC1(C#N)C(c2ccc(C3C(C#N)(C#N)C3(C#N)C#N)cc2)C1(C#N)C#N

>  <Study system>
OVCAR-3

>  <Reading>
> 100 µM (inactive)

$$$$

Attention now turns to another entry.
Answer with reported GI50 of CC(C)(CO)CNc1nc(N)nc(Cl)c1C=O
25.6 µM (inactive)
